# Tested on: SK-MEL-5 melanoma
# test name: NCI-60 one-dose screen, 48 h (100 = growth as untreated, 0 = no growth, -100 = all killed)
# test conditions: 10 µM unless noted
Compounds without any hit were thinned out: in the full panel of roughly 83,000, 20% have a hit.
quantity name: growth (%)
Numeric only. Scale: %

## Input Please give measured growth of the following entry: `Fc1ccc(-c2nnc(/C=C/c3cn(-c4ccccc4)nc3-c3ccccc3)o2)cc1`
## Output 105

## Input Please give measured growth of the following entry: `O=C(CN1CCCCC1)Sc1nnc2sc3ccccc3n12`
## Output 99.2

## Input Please give measured growth of the following entry: `COc1ccc(-c2noc(N)c2-c2cc(OC)c3c(c2)OCO3)cc1`
## Output 21.2

## Input Please give measured growth of the following entry: `O=C(Nc1ccc(Nc2ccncc2)cc1)c1ccc(Nc2ccnc3ccc([N+](=O)[O-])cc23)cc1[N+](=O)[O-]`
## Output 103

## Input Please give measured growth of the following entry: `CCC1=C(c2ccc(OC)cc2)C(C)(C)Oc2cc(O)c(CN3CCCC3)cc21`
## Output 67

## Input Please give measured growth of the following entry: `C[n+]1c2ccccc2c(NC2CCNCC2)c2[nH]c3ccccc3c21`
## Output 7.09

## Input Please give measured growth of the following entry: `O=C(Nc1cccc([N+](=O)[O-])c1)c1cccc(C(=O)Nc2cccc([N+](=O)[O-])c2)c1`
## Output 94

## Input Please give measured growth of the following entry: `COc1ccc(/C=C/C(=O)Nc2cccnc2Nc2ccc(F)cc2)cc1`
## Output 87.2

## Input Please give measured growth of the following entry: `COc1ccc2[nH]cc(/C=C3/C(=O)Nc4ccc(F)cc43)c2c1`
## Output 93.1

## Input Please give measured growth of the following entry: `COc1ncc(-c2ccc3nccc(C#CCN4CCN(S(C)(=O)=O)CC4)c3c2)cc1NS(=O)(=O)c1ccc(F)cc1F`
## Output -92.3

## Input Please give measured growth of the following entry: `COc1ccc(OC)c2c1[nH]c(=O)c1c3ccccc3cn21`
## Output -98.8

## Input Please give measured growth of the following entry: `O=C1/C(=N/O)CCc2ccccc21`
## Output 102

## Input Please give measured growth of the following entry: `Cc1cc(C(C)(C)C)cc(C)c1CC1=NCCN1`
## Output 96.7

## Input Please give measured growth of the following entry: `S=C(Nc1ccc(C2=NCCN2)cc1)Nc1ccc(C2=NCCN2)cc1`
## Output 96.6

## Input Please give measured growth of the following entry: `CC1=CSC2=NCCN12`
## Output 106

## Input Please give measured growth of the following entry: `O=C(CSCC(=O)N/N=C/c1ccccc1O)N/N=C\c1ccccc1O`
## Output 24

## Input Please give measured growth of the following entry: `Cn1cc(-c2csc(-c3c[nH]c4ncccc34)n2)c2cc(F)cnc21`
## Output 61.4

## Input Please give measured growth of the following entry: `O=C(Nc1cccc2ccccc12)c1cc2c(cc1Br)OCO2`
## Output 99.2

## Input Please give measured growth of the following entry: `COc1cc(/C=C/C(=O)Nc2cccnc2Nc2cc(OC)c(OC)c(OC)c2)cc(OC)c1OC`
## Output 93.6

## Input Please give measured growth of the following entry: `O=C1NCN(c2ccccc2)C12CCN(CCCC(c1ccc(F)cc1)c1ccc(F)cc1)CC2`
## Output 41.4

## Input Please give measured growth of the following entry: `C=C(C)[C@@H]1C/C=C(/C=O)CC[C@@H]2O[C@@]2(C)CC/C=C(\C)CC1`
## Output 101

## Input Please give measured growth of the following entry: `O=C(CCc1nnc(SCc2ccccc2)s1)c1nc2ccccc2[nH]1`
## Output 99.4

## Input Please give measured growth of the following entry: `CC/C(=C\c1ccc(N(C)C)cc1)c1nc2ccccc2c(=O)[nH]1`
## Output 97.4

## Input Please give measured growth of the following entry: `COc1ccc2c(c1)C(=O)/C(=C/c1cccc(OCC(=O)c3ccccc3)c1)CC2`
## Output 39.3

## Input Please give measured growth of the following entry: `Nc1ccc2c(c1)/C(=N/O)c1cc([N+](=O)[O-])ccc1-2`
## Output 80.9

## Input Please give measured growth of the following entry: `c1csc([C@@H]2C[C@@H]3Cc4ccc5ccccc5c4N2O3)c1`
## Output 101

## Input Please give measured growth of the following entry: O=C(NCCc1ccccc1)C1CCC(=O)N1Cc1ccc(Br)cc1 (stereo unspecified)
## Output 101

## Input Please give measured growth of the following entry: `O=C1/C(=C/c2ccc([N+](=O)[O-])o2)Oc2ccc(Br)cc21`
## Output 82.5

## Input Please give measured growth of the following entry: `COc1ccc(C(=O)COc2cccc(/C=C3\Oc4ccc5ccccc5c4C3=O)c2)cc1`
## Output 78.6

## Input Please give measured growth of the following entry: CCC1(c2ccccc2)Oc2ccccc2-n2c(C#N)c3ccccc3c2C1=O (stereo unspecified)
## Output 100

## Input Please give measured growth of the following entry: `CN(C)CCCN1c2nc3ccccc3cc2Sc2cc3ccccc3nc21`
## Output -75.9
